Assay: Antiproliferative activity against human OCI-M1 cells assessed as inhibition of cell viability measured for 6 to 7 days by cell titer glo assay
Assay type: functional, cell-based
measured_endpoint: pEC50
API: returns pEC50 as number; meaning -log10 of concentration in mol/L.

# molecule "CCn1cc(-c2ccnc3[nH]c(-c4cccc(CN(C)C)c4)cc23)c(-c2ccc(NC(=O)N(C)C)cc2)n1" ; its pEC50 = 7.70

* * *

Test system: NC-37
Assay: Antiproliferative activity against human NC-37 cells assessed as inhibition of cell viability measured for 6 to 7 days by cell titer glo assay
Type: functional, cell-based
measured_endpoint: pEC50
Please treat pEC50 as minus the base-10 logarithm of the molar concentration.

get_value(item= "CCn1cc(-c2ccnc3[nH]c(-c4cccc(CN(C)C)c4)cc23)c(-c2ccc(NC(=O)N(C)C)cc2)n1" , readout=pEC50) returns 8.15

* * *

System: DG-75
Experiment: Antiproliferative activity against human DG-75 cells assessed as inhibition of cell viability measured for 6 to 7 days by cell titer glo assay
Type: functional, cell-based
measured_endpoint: EC50 (nM)
Use nM as the unit, but write only the number.

The value of EC50 measured for the compound "CCn1cc(-c2ccnc3[nH]c(-c4cccc(CN(C)C)c4)cc23)c(-c2ccc(NC(=O)N(C)C)cc2)n1" turned out to be 18

* * *

System: BXPC-3
Assay: Antiproliferative activity against human BXPC-3 cells assessed as inhibition of cell viability measured for 6 to 7 days by cell titer glo assay
Assay type: functional, cell-based
measured_endpoint: EC50 (nM)
Write it as a number; the unit nM goes unstated.

Field EC50 (entry CCn1cc(-c2ccnc3[nH]c(-c4cccc(CN(C)C)c4)cc23)c(-c2ccc(NC(=O)N(C)C)cc2)n1 [GSK-1070916] ) reads 3

* * *

System: MHH-PREB-1
Experiment: Antiproliferative activity against human MHH-PREB-1 cells assessed as inhibition of cell viability measured for 6 to 7 days by cell titer glo assay
Assay type: functional, cell-based
measured_endpoint: pEC50
Entry type: numeric. Quantity: pEC50, the -log10 of concentration in molar units.

// "CCn1cc(-c2ccnc3[nH]c(-c4cccc(CN(C)C)c4)cc23)c(-c2ccc(NC(=O)N(C)C)cc2)n1" : pEC50 value = 8.40

* * *

Tested on: DU-145
Experiment: Antiproliferative activity against human DU-145 cells assessed as inhibition of cell viability measured for 6 to 7 days by cell titer glo assay
Assay type: functional, cell-based
measured_endpoint: pEC50
On this scale, pEC50 is minus log10 of a concentration expressed in M (mol/L).

// pEC50 value for CCn1cc(-c2ccnc3[nH]c(-c4cccc(CN(C)C)c4)cc23)c(-c2ccc(NC(=O)N(C)C)cc2)n1 [GSK-1070916] : 7.82

* * *

Assay: Antiproliferative activity against human Tanoue cells assessed as inhibition of cell viability measured for 6 to 7 days by cell titer glo assay
Type: functional, cell-based
measured_endpoint: EC50

The molecule listed as CCn1cc(-c2ccnc3[nH]c(-c4cccc(CN(C)C)c4)cc23)c(-c2ccc(NC(=O)N(C)C)cc2)n1 [GSK-1070916] has a reported EC50 of 1480 nM

* * *

Molecular target: Aurora kinase B/Inner centromere protein (Homo sapiens, UniProt Q96GD4)
Sequence (Q96GD4 whole entry): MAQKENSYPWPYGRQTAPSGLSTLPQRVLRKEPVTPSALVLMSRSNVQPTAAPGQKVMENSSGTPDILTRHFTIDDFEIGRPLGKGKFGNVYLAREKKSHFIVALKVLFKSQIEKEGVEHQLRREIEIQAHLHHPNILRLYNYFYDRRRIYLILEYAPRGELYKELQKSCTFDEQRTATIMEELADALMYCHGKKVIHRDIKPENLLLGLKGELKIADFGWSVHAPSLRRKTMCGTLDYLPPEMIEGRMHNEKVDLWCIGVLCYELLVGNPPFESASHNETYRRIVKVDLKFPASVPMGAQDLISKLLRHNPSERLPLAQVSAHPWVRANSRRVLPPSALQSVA
Sequence (Q9NQS7 whole entry, further chain): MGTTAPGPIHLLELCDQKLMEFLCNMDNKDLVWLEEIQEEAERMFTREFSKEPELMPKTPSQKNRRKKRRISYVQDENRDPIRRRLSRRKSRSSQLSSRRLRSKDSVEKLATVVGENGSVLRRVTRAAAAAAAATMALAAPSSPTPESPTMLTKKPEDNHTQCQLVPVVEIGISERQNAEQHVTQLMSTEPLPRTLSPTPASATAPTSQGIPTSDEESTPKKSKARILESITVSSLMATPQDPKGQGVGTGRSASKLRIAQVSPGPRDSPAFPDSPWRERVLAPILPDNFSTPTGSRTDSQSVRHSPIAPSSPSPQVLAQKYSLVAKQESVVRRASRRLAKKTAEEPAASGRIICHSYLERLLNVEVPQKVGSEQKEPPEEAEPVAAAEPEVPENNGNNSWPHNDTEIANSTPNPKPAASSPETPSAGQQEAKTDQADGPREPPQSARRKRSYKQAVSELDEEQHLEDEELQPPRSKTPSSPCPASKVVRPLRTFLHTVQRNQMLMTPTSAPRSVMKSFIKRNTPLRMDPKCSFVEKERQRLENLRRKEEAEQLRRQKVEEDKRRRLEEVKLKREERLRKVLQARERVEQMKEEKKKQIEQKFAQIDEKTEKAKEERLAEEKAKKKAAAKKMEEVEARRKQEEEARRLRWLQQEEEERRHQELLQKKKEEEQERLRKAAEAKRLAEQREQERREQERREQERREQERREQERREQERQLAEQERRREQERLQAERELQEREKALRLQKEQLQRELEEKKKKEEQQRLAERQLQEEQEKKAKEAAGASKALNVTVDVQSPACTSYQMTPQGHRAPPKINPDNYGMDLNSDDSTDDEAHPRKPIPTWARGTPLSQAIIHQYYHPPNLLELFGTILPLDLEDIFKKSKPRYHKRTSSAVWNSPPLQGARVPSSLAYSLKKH
Experiment: Binding affinity to AurB/INCENP (unknown origin) assessed as inhibition constant
measured_endpoint: pKi
# pKi = -log10(concentration in molar units)

Noted for "CCn1cc(-c2ccnc3[nH]c(-c4cccc(CN(C)C)c4)cc23)c(-c2ccc(NC(=O)N(C)C)cc2)n1" : its pKi reads 9.41
